Tested on: WaGa
Procedure Summary: qHTS assay to identify novel small-molecules to repurpose for Merkel cell carcinoma treatment (AID 1296009); further: nearly all actives have a fitted effect of over 60% in size
Protocol Conditions: MCC and control cell lines, CellTiter-Glo viability, 72 h; series mostly up to 46 µM
Results filed as inconclusive are left out. Active and inactive are the calls of the source. The call rests on the fitted dose curve; in most records, active means well fitted inhibition curve with a large enough effect; inconclusive means small, poorly fitted or top-dose-only effect; inactive means flat fitted curve, though single readings scatter.
Outcome codes: 1 (yes) = active, 0 (no) = inactive

> print(dat)
                                   molecule  class.label
1  COC1CCC(C(=O)c2ccc3nc4c(cc3c2)CCCO4)CC1 (stereo not drawn)       0 (no)
2  CCOC(=O)N1c2ccc(C(F)(F)F)cc2[C@@H](N(Cc2cc(C(F)(F)F)cc(C(F)(F)F)c2)C(=O)OC)C[C@H]1CC       0 (no)
3  COc1cc(Nc2nc3ccccc3nc2NS(=O)(=O)c2ccc(NC(=O)c3ccc(C)c(OC)c3)cc2)cc(OC)c1       0 (no)
4  CCC(=O)OCC(=O)[C@@]1(OC(=O)CC)[C@@H](C)C[C@@H]2[C@H]3CCC4=CC(=O)C=C[C@]4(C)[C@@]3(F)[C@@H](O)C[C@@]21C       0 (no)
5  Nc1ncnc2c1ncn2[C@@H]1O[C@H](CO)[C@@H](O)[C@@H]1O      1 (yes)
6  CCOC(=O)[C@@H](N)CCC(=O)N[C@@H](CSCc1ccccc1)C(=O)N[C@@H](C(=O)OCC)c1ccccc1       0 (no)
7  CC(C)[C@H](O)C(=O)N[C@@H](C)C(=O)N[C@@H]1C(=O)N(C)CCc2ccccc21       0 (no)
8  COc1c(C)c2c(c(O)c1CC=C(C)CCC(=O)OCCN1CCOCC1)C(=O)OC2      1 (yes)

----------
Procedure Summary: Quantitative High-Throughput drug screen in 47 multiple myeloma cell lines against the NCATS MIPE library collection: OPM2_DSMZ cell viability assay (AID 1919872); further: nearly all actives have a fitted effect of over 30% in size
Protocol Conditions: OPM2 myeloma viability, CellTiter-Glo ATP luminescence, 48 h; series mostly up to 45.8 µM
Records with an inconclusive call do not appear. Activity calls are given as the source filed them. Calls come from the whole dose curve; as a rule, active = well fitted cell-killing curve with a large enough effect; inconclusive = small, poorly fitted or top-dose-only effect, or effect the other way; inactive = no such curve, though single readings can be large or run the other way.
Outcome codes: active, inactive

Compound	Class Label
CN(C)CCN(C)C(=O)c1ccc(NC(=O)Nc2ccc(-c3nc(N4CCOCC4)c4ccn(CC(F)(F)F)c4n3)cc2)cc1	active
Cc1nc2c([nH]1)CCN(C(=O)c1ccc(NC(=O)c3ccccc3-c3ccccc3)cc1)c1ccccc1-2	inactive
CCOC(=O)N1c2ccc(C(F)(F)F)cc2[C@@H](N(Cc2cc(C(F)(F)F)cc(C(F)(F)F)c2)C(=O)OC)C[C@H]1CC	active
CCC(C)SSc1ncc[nH]1 (stereo not drawn)	active
CN[C@@H]1[C@@H](O)[C@@H](O[C@@H]2[C@@H](O)[C@H](O[C@H]3O[C@H](CN)[C@@H](O)[C@H](O)[C@@H]3O)[C@@H](N)C[C@@H]2NC(=O)[C@@H](O)CN)OC[C@]1(C)O	inactive
CCCCOCCOc1nc(-c2ccc(C(=O)O)c(F)c2)sc1C	inactive
COc1c(C)c2c(c(O)c1CC=C(C)CCC(=O)OCCN1CCOCC1)C(=O)OC2	active
C[C@@H](O)[C@H]1C(=O)N2C(C(=O)OCOC(=O)C(C)(C)C)=C(SC3CN(C4=NCCS4)C3)[C@H](C)[C@H]12	inactive
